# Tested on: Foxtail, Giant (giant foxtail, Setaria faberi)
# experimental-details: Test A postemergence, Foxtail, Giant
# Assay type: in vivo
# settings: Postemergence, 500 g ai/ha; visual injury vs untreated controls after approx. 10 days; 0 to 100 scale (0 no effect, 100 complete control)
# Text: Seeds of plant species selected from barnyardgrass (Echinochloa crus-galli), kochia (Bassia scoparia), ragweed (common ragweed, Ambrosia artemisiifolia), Ryegrass, Italian (Italian ryegrass, Lolium multiflorum), Foxtail, Giant (giant foxtail, Setaria faberi), and pigweed (Amaranthus retroflexus) were planted into a blend of loam soil and sand and treated preemergence with a directed soil spray using test chemicals formulated in a non-phytotoxic solvent mixture which included a surfactant. […]

[
  {
    "compound": "CC(=O)OCN(c1cc(C2=NO[C@@H]3CCC[C@H]23)c(C)cc1C)S(=O)(=O)C(F)(F)F (relative stereo)",
    "Foxtail, Giant plant response rating": 70
  },
  {
    "compound": "Cc1cc(C)c(N(S(=O)(=O)C(F)(F)F)S(=O)(=O)C(F)(F)F)cc1C1=NOC(C)(CCl)C1 (stereo not shown)",
    "Foxtail, Giant plant response rating": 20
  },
  {
    "compound": "Cc1cc(C(F)(F)F)c(NS(=O)(=O)C(F)(F)F)cc1C(=O)N(C)C",
    "Foxtail, Giant plant response rating": 40
  },
  {
    "compound": "CCn1nc(C)cc(-c2cc(NS(=O)(=O)C(F)(F)F)c(C)cc2C)c1=O",
    "Foxtail, Giant plant response rating": 90
  },
  {
    "compound": "Cc1cc(-c2cc(NS(=O)(=O)C(F)(F)F)c(C)cc2C)c(=O)n(C)n1",
    "Foxtail, Giant plant response rating": 80
  },
  {
    "compound": "Cc1cc(C)c(-c2ccnn(C)c2=O)cc1NS(=O)(=O)C(F)(F)F",
    "Foxtail, Giant plant response rating": 90
  },
  {
    "compound": "Cc1cc(F)c(C(=O)N2CCOCC2)cc1N(S(=O)(=O)C(F)(F)F)S(=O)(=O)C(F)(F)F",
    "Foxtail, Giant plant response rating": 40
  }
]

###

The reader will find reported Plant response rating, Pigweed, Palmer values listed item by item below.
# System: Pigweed, Palmer (palmer amaranth, palmer pigweed, Amaranthus palmeri)
# experimental-details: Test A1 postemergence, Pigweed, Palmer
# Assay type: in vivo
# settings: Postemergence, 125 g ai/ha; 0 to 100 scale (0 no effect, 100 complete control); 10 days
observed-property: Plant response rating, Pigweed, Palmer

[
  {
    "molecule": "Cc1cc(C)c(N(COC(=O)C(C)(C)C)S(=O)(=O)C(F)(F)F)cc1N1CCC2(CCC(C)CC2)C1=O (stereo not shown)",
    "observed-property": "Plant response rating, Pigweed, Palmer",
    "experimental-value": 30
  },
  {
    "molecule": "Cc1c(C2=NOC3(CCCC3)C2)cc(N(COC(=O)C(C)(C)C)S(=O)(=O)C(F)(F)F)c(C)c1C",
    "observed-property": "Plant response rating, Pigweed, Palmer",
    "experimental-value": 20
  },
  {
    "molecule": "COC1CCC2(CC1)CCN(c1cc(NS(=O)(=O)C(F)(F)F)c(C)cc1C)C2=O (stereo not shown)",
    "observed-property": "Plant response rating, Pigweed, Palmer",
    "experimental-value": 80
  },
  {
    "molecule": "Cc1cc(C)c(N2Cc3cccc(Br)c3C2=O)cc1NS(=O)(=O)Cl",
    "observed-property": "Plant response rating, Pigweed, Palmer",
    "experimental-value": 20
  }
]

###

# Tested on: Foxtail, Giant (giant foxtail, Setaria faberi)
# experimental-details: Test A postemergence, Foxtail, Giant
# Type: in vivo
# settings: Postemergence, 125 g ai/ha; 0 to 100 scale (0 no effect, 100 complete control)

[
  {
    "compound": "Cc1cc(F)c(C(=O)N2CC(C)OC(C)C2)cc1NS(=O)(=O)C(F)(F)F (stereo not shown) [Compound 238]",
    "Plant response rating, Foxtail, Giant": 30
  },
  {
    "compound": "Cc1cc(C)c(N(S(=O)(=O)C(F)(F)F)S(=O)(=O)C(F)(F)F)cc1C(=O)N1CCC(C#N)CC1 [Compound 161]",
    "Plant response rating, Foxtail, Giant": 20
  },
  {
    "compound": "Cc1cc(Cl)c(NS(=O)(=O)C(F)(F)F)cc1C1=NOC(C)(C)C1 [Compound 203]",
    "Plant response rating, Foxtail, Giant": 0
  },
  {
    "compound": "Cc1cc(C)c(C(=O)N2CCC(S(C)(=O)=O)CC2)cc1NS(=O)(=O)C(F)(F)F [Compound 233]",
    "Plant response rating, Foxtail, Giant": 0
  },
  {
    "compound": "Cc1cc(Cl)c(C(=O)N2CCCCC2)cc1N(S(=O)(=O)C(F)(F)F)S(=O)(=O)C(F)(F)F [Compound 253]",
    "Plant response rating, Foxtail, Giant": 0
  },
  {
    "compound": "Cc1cc(C)c(N(S(=O)(=O)C(F)(F)F)S(=O)(=O)C(F)(F)F)cc1C1=NOC2(CCCCCC2)C1 [Compound 158]",
    "Plant response rating, Foxtail, Giant": 0
  },
  {
    "compound": "Cc1cc(F)c(C(=O)N2CCOCC2)cc1N(S(=O)(=O)C(F)(F)F)S(=O)(=O)C(F)(F)F [Compound 237]",
    "Plant response rating, Foxtail, Giant": 20
  }
]

###

# System: wheat (Triticum aestivum)
# experimental-details: Test A postemergence, wheat
# Type: in vivo
# settings: Postemergence, 500 g ai/ha; visual injury approx. 10 days; 0 to 100 scale (0 no effect, 100 complete control)
observed-property: Plant response rating, Wheat

[
  {
    "molecule": "CC(=O)N(c1cc(N2CCC3(CCCCC3)C2=O)c(C)cc1C)S(=O)(=O)C(F)(F)F [Compound 265]",
    "observed-property": "Plant response rating, Wheat",
    "experimental-value": 60
  },
  {
    "molecule": "Cc1cc(Cl)c(C(=O)N(C)C)cc1N(S(=O)(=O)C(F)(F)F)S(=O)(=O)C(F)(F)F [Compound 256]",
    "observed-property": "Plant response rating, Wheat",
    "experimental-value": 60
  },
  {
    "molecule": "Cc1cc(C)c(N(S(=O)(=O)C(F)(F)F)S(=O)(=O)C(F)(F)F)cc1N1CCC2(CCCC2)C1=O [Compound 280]",
    "observed-property": "Plant response rating, Wheat",
    "experimental-value": 60
  },
  {
    "molecule": "Cc1cc(Cl)c(C(=O)N2CCCCC2)cc1NS(=O)(=O)C(F)(F)F [Compound 252]",
    "observed-property": "Plant response rating, Wheat",
    "experimental-value": 40
  },
  {
    "molecule": "Cc1cc(C)c(N(S(=O)(=O)C(F)(F)F)S(=O)(=O)C(F)(F)F)cc1C(=O)N1CCC(Cl)CC1 [Compound 243]",
    "observed-property": "Plant response rating, Wheat",
    "experimental-value": 30
  }
]

###

# Tested on: Ryegrass, Italian (Italian ryegrass, Lolium multiflorum)
# experimental-details: Test A postemergence, Ryegrass, Italian
# Format: in vivo
# settings: Postemergence, 500 g ai/ha; visual injury, 0 to 100 scale (0 no effect, 100 complete control), approx. 10 days
The reader will find reported Plant response rating, Ryegrass, Italian values listed item by item below.

[
  {
    "compound": "O=C(c1ccc(Cl)c(NS(=O)(=O)C(F)(F)F)c1)N1CCOCC1",
    "Plant response rating, Ryegrass, Italian": 0
  },
  {
    "compound": "CCn1cc(-c2cc(N(S(=O)(=O)C(F)(F)F)S(=O)(=O)C(F)(F)F)c(C)cc2C)c(=O)n(C)c1=O",
    "Plant response rating, Ryegrass, Italian": 70
  },
  {
    "compound": "Cc1cc(Cl)c(NS(=O)(=O)C(F)(F)F)cc1C(=O)N1CCC(C#N)CC1",
    "Plant response rating, Ryegrass, Italian": 70
  },
  {
    "compound": "Cc1cc(Cl)c(NS(=O)(=O)C(F)(F)F)cc1C(=O)N1CC(C)OC(C)C1 (centres unmarked)",
    "Plant response rating, Ryegrass, Italian": 70
  },
  {
    "compound": "Cc1cc(Cl)c(NS(=O)(=O)C(F)(F)F)cc1-c1cn(C)c(=O)n(C)c1=O",
    "Plant response rating, Ryegrass, Italian": 90
  },
  {
    "compound": "COc1cc(-c2cc(N(S(=O)(=O)C(F)(F)F)S(=O)(=O)C(F)(F)F)c(C)cc2C)c(=O)n(C)n1",
    "Plant response rating, Ryegrass, Italian": 40
  },
  {
    "compound": "Cc1cc(C)c(N(S(=O)(=O)C(F)(F)F)S(=O)(=O)C(F)(F)F)cc1-c1cn(C)c(=O)n(C)c1=O",
    "Plant response rating, Ryegrass, Italian": 80
  },
  {
    "compound": "CCN(CC)C(=O)c1cc(NS(=O)(=O)C(F)(F)F)c(Cl)cc1C",
    "Plant response rating, Ryegrass, Italian": 50
  }
]

FYI, the data here is from patent US20230278972A1.
